System: Canis familiaris
Assay: Percentage change in renal resistance in anesthetized dogs
Type: functional, Canis lupus familiaris
Label true (1) when Change is strictly below -10%; at or above that, label false (0).

- MOLECULE: "CCCCCC(O)CCCC(CCCc1ccc(C(=O)O)cc1)C(C)=O (stereo unspecified)"
  CLASS LABEL: "true (1)"

INPUT: Consider the molecule CS(=O)(=O)N(CCCc1ccc(C(=O)O)cc1)CCCC1(O)CCCCC1 . Is its Change strictly less than -10%?
OUTPUT: false (0)

INPUT: Quick check: Change of CC(=O)C(CCCc1ccc(C(=O)O)cc1)CCCC1(O)CCCCC1 (stereo unspecified) under -10%?
OUTPUT: true (1)

INPUT: Lab note: Change threshold -10%. Does this molecule come in strictly under it? CCCCCC(O)CCCC(CCCCc1ccc(C(=O)O)cc1)C(C)=O (stereo unspecified)
OUTPUT: false (0)
